These measurements were taken from patent US20250250357A1.

# Tested on: T1, human MSLN-FL-his protein (human, UniProt Q13421 296-580)
# T1 construct: made in HEK293E cells, purified on nickel column; also called hMSLN-FL-his; human MSLN full-length protein; not shown: His tag
# T1 sequence (Q13421 other isoform, or with tags, fused parts or gaps): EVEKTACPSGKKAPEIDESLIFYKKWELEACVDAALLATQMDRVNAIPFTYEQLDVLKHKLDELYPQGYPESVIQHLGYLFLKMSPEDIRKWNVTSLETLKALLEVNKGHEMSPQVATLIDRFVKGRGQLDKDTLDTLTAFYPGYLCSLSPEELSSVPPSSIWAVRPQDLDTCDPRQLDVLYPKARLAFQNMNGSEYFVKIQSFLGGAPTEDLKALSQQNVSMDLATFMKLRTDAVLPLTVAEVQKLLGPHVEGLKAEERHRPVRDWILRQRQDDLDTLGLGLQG
# Test protocol: competitive ELISA; row F8-18.9; also: test concentration or dose not given here
Measurement kind: competition rate (%)
Numbers only, in %.

A selection of reference data follows.
Binder	Unit spec	competition rate
S009-F8-4.5 (antibody, human IgG1, kappa, V domains shown, human-murine chimeric antibody, human IgG1/kappa constant regions) VH: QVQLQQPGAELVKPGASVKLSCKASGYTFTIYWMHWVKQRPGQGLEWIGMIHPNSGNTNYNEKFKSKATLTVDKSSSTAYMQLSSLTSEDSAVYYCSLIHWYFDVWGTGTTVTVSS VL: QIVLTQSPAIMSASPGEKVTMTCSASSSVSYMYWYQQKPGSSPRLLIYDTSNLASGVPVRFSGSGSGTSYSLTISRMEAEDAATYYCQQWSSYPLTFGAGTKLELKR	%	8.32
S009-F8-5.15 (antibody, human IgG1, kappa, V domains shown, human-murine chimeric antibody, human IgG1/kappa constant regions) VH: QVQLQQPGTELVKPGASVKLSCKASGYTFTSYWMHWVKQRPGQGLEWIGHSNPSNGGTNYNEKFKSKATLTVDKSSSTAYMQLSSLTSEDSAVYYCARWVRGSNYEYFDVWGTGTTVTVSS VL: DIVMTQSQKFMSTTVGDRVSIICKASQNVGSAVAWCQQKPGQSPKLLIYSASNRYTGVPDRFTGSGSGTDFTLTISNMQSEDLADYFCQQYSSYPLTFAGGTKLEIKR	%	8.9

Entry S009-F8-27.1 (antibody, human IgG1, kappa, V domains shown, human-murine chimeric antibody, human IgG1/kappa constant regions) VH: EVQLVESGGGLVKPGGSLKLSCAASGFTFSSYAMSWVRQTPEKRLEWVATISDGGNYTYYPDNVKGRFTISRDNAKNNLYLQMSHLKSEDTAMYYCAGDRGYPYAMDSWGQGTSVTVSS VL: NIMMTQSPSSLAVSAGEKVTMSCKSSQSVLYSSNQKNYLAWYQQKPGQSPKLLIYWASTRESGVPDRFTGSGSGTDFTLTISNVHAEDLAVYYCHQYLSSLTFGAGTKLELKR ; competition rate = -2.77
